procedure-details: Pharmacokinetics after single oral dose (powder in capsule), Compound (I) plasma level by LC/MS
Assay type: in vivo, male Beagle dogs
condition-label: male, beagle, dog, plasma, po, 150 mg/kg, beagle dogs, oral dose 150 mg/kg, powder in capsule, plasma, up to 24 h; read-out: AUC0−tlast
Counter-ions that a name gives are not always drawn.
endpoint-label: AUC(0-t)

Looking up CN1CCN(c2ccc3nc(-c4c(N)c5ccsc5[nH]c4=O)[nH]c3c2)CC1 [Tartrate salt] , I found its AUC(0-t) recorded as 6550 ng·h/mL

---

procedure-details: Pharmacokinetics after single oral dose (powder in capsule), Compound (I) plasma level by LC/MS
Assay type: in vivo, male Beagle dogs
condition-label: male, beagle, dog, plasma, po, 125 mg/kg, beagle dogs, oral dose 125 mg/kg, powder in capsule, plasma; read-out: Cmax
endpoint-label: Cmax
Answer with the figure and its unit, nothing else.

Looking up CN1CCN(c2ccc3nc(-c4c(N)c5ccsc5[nH]c4=O)[nH]c3c2)CC1 [Free base] , I found its Cmax recorded as 301 ng/mL

The origin of these recorded values is patent US12624049B2.
